The reported measurements were obtained from patent US12215067B2.

assay: Pharmacokinetic study via oral administration in mice, plasma concentrations; format: in vivo, mice C57BL/6; conditions: C57BL/6, mouse, in vivo, po, 50 mg/kg
Would you mind telling me the reported Cmax of each entry?
Number only, in ng/mL; omit the unit.

Please give the measured Cmax for this compound: CC(=C/C=C/C(C)=C/C=C/C=C(C)/C=C/C=C(C)/C=C/C(=O)N1CCCOCC1)/C=C/C(=O)O [C5]
37700

Please give the measured Cmax for this compound: CC(=C/C=C/C(C)=C/C=C/C=C(C)/C=C/C=C(C)/C=C/C(=O)NCCc1ccc(O)cc1)/C=C/C(=O)O [C16]
10500

Please give the measured Cmax for this compound: CC(=C/C=C/C(C)=C/C=C/C=C(C)/C=C/C=C(C)/C=C/C(=O)N1CCC(CO)CC1)/C=C/C(=O)O [C14]
19000

Please give the measured Cmax for this compound: CC(=C/C=C/C(C)=C/C=C/C=C(C)/C=C/C=C(C)/C=C/C(=O)N1CCC(O)C1)/C=C/C(=O)O (stereo in doubt) [C11]
35900

Please give the measured Cmax for this compound: COC1CCN(C(=O)/C=C/C(C)=C/C=C/C(C)=C/C=C/C=C(C)/C=C/C=C(C)\C=C\C(=O)O)CC1 [C24]
48300

Please give the measured Cmax for this compound: COCCNC(=O)/C=C/C(C)=C/C=C/C(C)=C/C=C/C=C(C)/C=C/C=C(C)\C=C\C(=O)O [C1]
18700

Please give the measured Cmax for this compound: CC(=C/C=C/C(C)=C/C=C/C=C(C)/C=C/C=C(C)/C=C/C(=O)N1CCC(O)C1)/C=C/C(=O)O (stereo in doubt) [C9]
37900

Please give the measured Cmax for this compound: COC1CCCN(C(=O)/C=C/C(C)=C/C=C/C(C)=C/C=C/C=C(C)/C=C/C=C(C)\C=C\C(=O)O)C1 (stereo not drawn) [C20]
35000

Please give the measured Cmax for this compound: CCCOC1CCN(C(=O)/C=C/C(C)=C/C=C/C(C)=C/C=C/C=C(C)/C=C/C=C(C)\C=C\C(=O)O)CC1 [C22]
12800

Please give the measured Cmax for this compound: CC(=C/C=C/C(C)=C/C=C/C=C(C)/C=C/C=C(C)/C=C/C(=O)N1C[C@@H](C)O[C@@H](C)C1)/C=C/C(=O)O [C15]
17300

Please give the measured Cmax for this compound: CC(=C/C=C/C(C)=C/C=C/C=C(C)/C=C/C=C(C)/C=C/C(=O)NCC(C)(C)N1CCOCC1)/C=C/C(=O)O [C13]
27900

Please give the measured Cmax for this compound: CC(=C/C=C/C(C)=C/C=C/C=C(C)/C=C/C=C(C)/C=C/C(=O)N1CCCC1)/C=C/C(=O)O [C7]
6890

Please give the measured Cmax for this compound: CC(=C/C=C/C(C)=C/C=C/C=C(C)/C=C/C=C(C)/C=C/C(=O)NCCO)/C=C/C(=O)O [C4]
57100

Please give the measured Cmax for this compound: CC(=C/C=C/C(C)=C/C=C/C=C(C)/C=C/C=C(C)/C=C/C(=O)N1CCC(O)CC1)/C=C/C(=O)O [C12]
29300

Please give the measured Cmax for this compound: CC(=C/C=C/C(C)=C/C=C/C=C(C)/C=C/C=C(C)/C=C/C(=O)N1CCCCC1)/C=C/C(=O)O [C3]
4050

###

experiment: Pharmacokinetic study via oral administration in mice, plasma concentrations; assay type: in vivo, mice C57BL/6; details: C57BL/6, mouse, in vivo, po; mice, p.o. 50 mg/kg in VitE-TPGS 20% in sodium bicarbonate buffer (0.1M); read-out: Plasma CMax
assay.endpoint: Cmax (ng/mL)
Number only, in ng/mL; omit the unit.

Please give the measured Cmax for this compound: CC(=C/C=C/C(C)=C/C=C/C=C(C)/C=C/C=C(C)/C=C/C(=O)N1CCOCC1)/C=C/C(=O)O
34000

###

test: Pharmacokinetic study via oral administration in mice, ocular concentrations; format: in vivo, mice C57BL/6; conditions: C57BL/6, mouse, eye, po; mice, p.o. 50 mg/kg in VitE-TPGS 20% in sodium bicarbonate buffer (0.1M)
Would you mind telling me the reported Tmax of each entry?
Number only, in h; omit the unit.

Please give the measured Tmax for this compound: CC(=C/C=C/C(C)=C/C=C/C=C(C)/C=C/C=C(C)/C=C/C(=O)NCCCN1CCOCC1)/C=C/C(=O)O [C8]
1

Please give the measured Tmax for this compound: CC(=C/C=C/C(C)=C/C=C/C=C(C)/C=C/C=C(C)/C=C/C(=O)N[C@H]1CC[C@H](O)CC1)/C=C/C(=O)O [C19]
0.5

Please give the measured Tmax for this compound: CC(=C/C=C/C(C)=C/C=C/C=C(C)/C=C/C=C(C)/C=C/C(=O)N1CCC(O)CC1)/C=C/C(=O)O [C12]
1

Please give the measured Tmax for this compound: COC1CCCN(C(=O)/C=C/C(C)=C/C=C/C(C)=C/C=C/C=C(C)/C=C/C=C(C)\C=C\C(=O)O)C1 (stereo not drawn) [C20]
2

Please give the measured Tmax for this compound: CC(=C/C=C/C(C)=C/C=C/C=C(C)/C=C/C=C(C)/C=C/C(=O)N1CCC(C(=O)O)CC1)/C=C/C(=O)O [C18]
2

Please give the measured Tmax for this compound: CCCOC1CCN(C(=O)/C=C/C(C)=C/C=C/C(C)=C/C=C/C=C(C)/C=C/C=C(C)\C=C\C(=O)O)CC1 [C22]
2

Please give the measured Tmax for this compound: CC(=C/C=C/C(C)=C/C=C/C=C(C)/C=C/C=C(C)/C=C/C(=O)N1CCCCC1)/C=C/C(=O)O [C3]
0.5

Please give the measured Tmax for this compound: CC(=C/C=C/C(C)=C/C=C/C=C(C)/C=C/C=C(C)/C=C/C(=O)N1CCCOCC1)/C=C/C(=O)O [C5]
0.5

Please give the measured Tmax for this compound: CC(=C/C=C/C(C)=C/C=C/C=C(C)/C=C/C=C(C)/C=C/C(=O)N1CCCC1)/C=C/C(=O)O [C7]
0.5

Please give the measured Tmax for this compound: CC(=C/C=C/C(C)=C/C=C/C=C(C)/C=C/C=C(C)/C=C/C(=O)N1CCC(CO)CC1)/C=C/C(=O)O [C14]
1

Please give the measured Tmax for this compound: CC(=C/C=C/C(C)=C/C=C/C=C(C)/C=C/C=C(C)/C=C/C(=O)N1CCC(O)C1)/C=C/C(=O)O (stereo in doubt) [C11]
1

Please give the measured Tmax for this compound: CC(=C/C=C/C(C)=C/C=C/C=C(C)/C=C/C=C(C)/C=C/C(=O)N1C[C@@H](C)O[C@@H](C)C1)/C=C/C(=O)O [C15]
0.5

Please give the measured Tmax for this compound: COCCNC(=O)/C=C/C(C)=C/C=C/C(C)=C/C=C/C=C(C)/C=C/C=C(C)\C=C\C(=O)O [C1]
0.5

Please give the measured Tmax for this compound: CC(=C/C=C/C(C)=C/C=C/C=C(C)/C=C/C=C(C)/C=C/C(=O)N1CCOCC1)/C=C/C(=O)O [C2]
0.5

Please give the measured Tmax for this compound: CC(=C/C=C/C(C)=C/C=C/C=C(C)/C=C/C=C(C)/C=C/C(=O)NCC(C)(C)N1CCOCC1)/C=C/C(=O)O [C13]
1

###

assay: Pharmacokinetic study via oral administration in mice, plasma concentrations; format: in vivo, mice C57BL/6; conditions: C57BL/6, mouse, in vivo, po; mice, p.o. 50 mg/kg in VitE-TPGS 20% in sodium bicarbonate buffer (0.1M); read-out: Plasma TMax
assay.endpoint: Tmax (min)
Number only, in min; omit the unit.

Please give the measured Tmax for this compound: CC(=C/C=C/C(C)=C/C=C/C=C(C)/C=C/C=C(C)/C=C/C(=O)N1CCOCC1)/C=C/C(=O)O [C2]
30

###

experiment: Pharmacokinetic study via oral administration in mice, ocular concentrations; type: in vivo, mice C57BL/6; details: mice, p.o. 50 mg/kg in VitE-TPGS 20% in sodium bicarbonate buffer (0.1M)
Please mark Met if the recorded Eye CMax is equal to or greater than 20 ng/eye, and Not met if it falls below.

Please indicate if the recorded Eye CMax for CC(=C/C=C/C(C)=C/C=C/C=C(C)/C=C/C=C(C)/C=C/C(=O)N1CCC(O)CC1)/C=C/C(=O)O meets or exceeds 20 ng/eye.
Met

Please indicate if the recorded Eye CMax for CC(=C/C=C/C(C)=C/C=C/C=C(C)/C=C/C=C(C)/C=C/C(=O)NCCO)/C=C/C(=O)O meets or exceeds 20 ng/eye.
Not met

Please indicate if the recorded Eye CMax for CC(/C=C/C=C(C)/C=C/C(=O)O)=C\C=C\C=C(C)\C=C\C=C(C)\C=C\C(=O)O [BIO201, 6,6′-diapocarotene-6,6′-dioate, reference compound] meets or exceeds 20 ng/eye.
Not met

Please indicate if the recorded Eye CMax for CC(=C/C=C/C(C)=C/C=C/C=C(C)/C=C/C=C(C)/C=C/C(=O)N1CCCC1)/C=C/C(=O)O meets or exceeds 20 ng/eye.
Not met

Please indicate if the recorded Eye CMax for CC(=C/C=C/C(C)=C/C=C/C=C(C)/C=C/C=C(C)/C=C/C(=O)NCCc1ccc(O)cc1)/C=C/C(=O)O meets or exceeds 20 ng/eye.
Not met

Please indicate if the recorded Eye CMax for COCCNC(=O)/C=C/C(C)=C/C=C/C(C)=C/C=C/C=C(C)/C=C/C=C(C)\C=C\C(=O)O meets or exceeds 20 ng/eye.
Not met

Please indicate if the recorded Eye CMax for CC(=C/C=C/C(C)=C/C=C/C=C(C)/C=C/C=C(C)/C=C/C(=O)N1CCCCC1)/C=C/C(=O)O meets or exceeds 20 ng/eye.
Not met

Please indicate if the recorded Eye CMax for CC(=C/C=C/C(C)=C/C=C/C=C(C)/C=C/C=C(C)/C=C/C(=O)N1C[C@@H](C)O[C@@H](C)C1)/C=C/C(=O)O meets or exceeds 20 ng/eye.
Met

Please indicate if the recorded Eye CMax for CC(=C/C=C/C(C)=C/C=C/C=C(C)/C=C/C=C(C)/C=C/C(=O)N1CCC(O)C1)/C=C/C(=O)O (stereo in doubt) [C11] meets or exceeds 20 ng/eye.
Met

Please indicate if the recorded Eye CMax for COC1CCCN(C(=O)/C=C/C(C)=C/C=C/C(C)=C/C=C/C=C(C)/C=C/C=C(C)\C=C\C(=O)O)C1 (centres unmarked) meets or exceeds 20 ng/eye.
Met

Please indicate if the recorded Eye CMax for CC(=C/C=C/C(C)=C/C=C/C=C(C)/C=C/C=C(C)/C=C/C(=O)N[C@H]1CC[C@H](O)CC1)/C=C/C(=O)O meets or exceeds 20 ng/eye.
Not met

Please indicate if the recorded Eye CMax for CCOCC1CCN(C(=O)/C=C/C(C)=C/C=C/C(C)=C/C=C/C=C(C)/C=C/C=C(C)\C=C\C(=O)O)CC1 meets or exceeds 20 ng/eye.
Not met

Please indicate if the recorded Eye CMax for CC(=C/C=C/C(C)=C/C=C/C=C(C)/C=C/C=C(C)/C=C/C(=O)N1CCC(C(=O)O)CC1)/C=C/C(=O)O meets or exceeds 20 ng/eye.
Met

Please indicate if the recorded Eye CMax for CCCOC1CCN(C(=O)/C=C/C(C)=C/C=C/C(C)=C/C=C/C=C(C)/C=C/C=C(C)\C=C\C(=O)O)CC1 meets or exceeds 20 ng/eye.
Met
